// data source = the kinase profiling compilation of Christmann-Franck et al. (2016)

Target: AAK1 (human) (UniProt Q2M2I8)
Sequence (Q2M2I8 whole entry, looked up): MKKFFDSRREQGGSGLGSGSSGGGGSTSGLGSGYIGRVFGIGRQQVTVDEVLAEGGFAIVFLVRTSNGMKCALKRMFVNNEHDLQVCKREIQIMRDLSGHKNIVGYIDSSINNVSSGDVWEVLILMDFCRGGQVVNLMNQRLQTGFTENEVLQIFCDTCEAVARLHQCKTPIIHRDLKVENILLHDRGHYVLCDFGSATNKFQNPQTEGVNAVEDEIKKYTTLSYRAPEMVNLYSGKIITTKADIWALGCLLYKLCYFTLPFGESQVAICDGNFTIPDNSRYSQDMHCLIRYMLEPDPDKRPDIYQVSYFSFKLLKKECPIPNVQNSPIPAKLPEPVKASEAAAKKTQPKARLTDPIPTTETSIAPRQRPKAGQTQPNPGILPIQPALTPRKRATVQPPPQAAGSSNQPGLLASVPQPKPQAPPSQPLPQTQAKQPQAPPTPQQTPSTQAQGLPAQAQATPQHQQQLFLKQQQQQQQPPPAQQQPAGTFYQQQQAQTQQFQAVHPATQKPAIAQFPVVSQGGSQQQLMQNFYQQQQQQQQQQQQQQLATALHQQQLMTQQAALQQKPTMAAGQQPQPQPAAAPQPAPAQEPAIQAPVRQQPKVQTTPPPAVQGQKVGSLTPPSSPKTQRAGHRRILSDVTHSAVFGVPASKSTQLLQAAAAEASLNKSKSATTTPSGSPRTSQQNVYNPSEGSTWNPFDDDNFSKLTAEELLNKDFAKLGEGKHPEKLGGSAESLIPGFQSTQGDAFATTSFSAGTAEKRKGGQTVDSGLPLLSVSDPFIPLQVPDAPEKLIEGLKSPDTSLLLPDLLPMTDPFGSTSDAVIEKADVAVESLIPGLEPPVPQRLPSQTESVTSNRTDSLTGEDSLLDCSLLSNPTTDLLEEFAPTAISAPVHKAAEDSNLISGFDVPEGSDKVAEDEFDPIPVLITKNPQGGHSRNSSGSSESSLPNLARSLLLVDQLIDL
Assay: KINOMEscan competition binding
Conditions: compound 10.0 µM
With a cut-off of 80%, any kinase still bound, per cent of control strictly below it is called 1; any kinase still bound, per cent of control meeting it or above is called 0.

{"columns": ["SAMPLE SMILES", "QUALITATIVE LABEL"],
 "data": [
  ["C=CC(=O)Nc1cc(-n2c(=O)ccc3cnc4ccc(-c5cn[nH]c5)cc4c32)ccc1C", 1],
  ["COc1cc(N2CCN(C)CC2)ccc1Nc1ncc2c(n1)N(C)c1ccccc1C(=O)N2C", 0],
  ["CCN(CC)CCCCNc1ncc2c(n1)N(C)C(=O)N(c1c(Cl)c(OC)cc(OC)c1Cl)C2", 0],
  ["COc1ccc(N(C(=O)Oc2c(C)cccc2C)c2ccnc(Nc3ccc(N4CCN(C)CC4)cc3)n2)c(OC)c1", 1],
  ["O=c1cc(N2CCOCC2)oc2c(-c3cccc4c3sc3ccccc34)cccc12", 0],
  ["N#CCNC(=O)c1ccc(-c2ccnc(Nc3ccc(N4CCOCC4)cc3)n2)cc1", 1],
  ["O=C1NC(=O)/C(=C/c2ccc3nccc(-c4ccncc4)c3c2)S1", 1],
  ["CNC(=O)c1ccc(Nc2cc(Nc3ccccc3S(=O)(=O)C(C)C)c3cc[nH]c3n2)nc1", 1],
  ["CNC(=O)c1cc(Oc2ccc(NC(=O)Nc3ccc(Cl)c(C(F)(F)F)c3)cc2)ccn1", 0],
  ["CCN(CC)CCCCNc1ncc2cc(-c3cc(OC)cc(OC)c3)c(NC(=O)NC(C)(C)C)nc2n1", 0],
  ["O=C(Nc1cccc(Nc2ncc(Br)c(NCCc3cnc[nH]3)n2)c1)N1CCCC1", 1],
  ["COc1cc2ncn(-c3cc(OCc4ccccc4C(F)(F)F)c(C(N)=O)s3)c2cc1OC", 1],
  ["CCN1CCN(C(=O)Cc2ccc(Nc3ncc(F)c(Nc4ccc(C(=O)Nc5ccccc5Cl)cc4)n3)cc2)CC1", 1],
  ["CN(C)C/C=C/C(=O)Nc1ccc(C(=O)Nc2cccc(Nc3nccc(-c4cccnc4)n3)c2)cc1", 1],
  ["NC(=O)Nc1cc(-c2cccc(F)c2)sc1C(=O)N[C@@H]1CCCNC1", 1],
  ["Cc1n[nH]c2ccc(-c3cncc(OC[C@@H](N)Cc4c[nH]c5ccccc45)c3)cc12", 1],
  ["COc1cc(C(=O)N2CCC(N3CCN(C)CC3)CC2)ccc1Nc1ncc2c(n1)N(C)c1ccccc1C(=O)N2C", 0],
  ["COCC(=O)NC/C=C/c1ccc2ncnc(Nc3ccc(Oc4ccc(C)nc4)c(C)c3)c2c1", 0],
  ["CS(=O)(=O)N1CCN(Cc2cc3nc(-c4cccc5[nH]ncc45)nc(N4CCOCC4)c3s2)CC1", 0]
]}

----------
Test system: ABL1 (human), P00519 [Y253F]
Assay: KINOMEscan competition binding
Details: compound 10.0 µM
Entries annotated with measured kinase still bound, per cent of control

{"columns": ["MOLECULE", "VALUE UNIT", "kinase still bound, per cent of control"],
 "data": [
  ["CCN(CC)CCCCNc1ncc2cc(-c3cc(OC)cc(OC)c3)c(NC(=O)NC(C)(C)C)nc2n1", "%", 100],
  ["N#CCNC(=O)c1ccc(-c2ccnc(Nc3ccc(N4CCOCC4)cc3)n2)cc1", "%", 61],
  ["COc1cc(C)c(Sc2cnc(NC(=O)c3ccc(CNC(C)C(C)C)cc3)s2)cc1C(=O)N1CCN(C(C)=O)CC1 (centres undefined)", "%", 100],
  ["N#Cc1c(NC(=O)c2cccc3ccccc23)sc2c1CCCC2", "%", 95],
  ["CCOc1cc(N2CCC(O)CC2)ccc1Nc1ncc2c(n1)N(C)c1ccccc1C(=O)N2C", "%", 100],
  ["CNC(=O)Nc1ccc(-c2nc(N3CC4CCC(C3)O4)c3cnn(C4CCC5(CC4)OCCO5)c3n2)cc1", "%", 99],
  ["COc1cc(C(=O)N2CCC(N3CCN(C)CC3)CC2)ccc1Nc1ncc2c(n1)N(C)c1ccccc1C(=O)N2C", "%", 89],
  ["O=C(Nc1cccc(Nc2ncc(Br)c(NCCc3cnc[nH]3)n2)c1)N1CCCC1", "%", 0.1],
  ["Cc1cc([C@@H](C)Nc2ccccc2C(=O)O)c2nc(N3CCOCC3)cc(=O)n2c1", "%", 100]
]}

----------
Molecular target: TXK (human) (UniProt P42681)
Sequence (P42681 whole entry, looked up): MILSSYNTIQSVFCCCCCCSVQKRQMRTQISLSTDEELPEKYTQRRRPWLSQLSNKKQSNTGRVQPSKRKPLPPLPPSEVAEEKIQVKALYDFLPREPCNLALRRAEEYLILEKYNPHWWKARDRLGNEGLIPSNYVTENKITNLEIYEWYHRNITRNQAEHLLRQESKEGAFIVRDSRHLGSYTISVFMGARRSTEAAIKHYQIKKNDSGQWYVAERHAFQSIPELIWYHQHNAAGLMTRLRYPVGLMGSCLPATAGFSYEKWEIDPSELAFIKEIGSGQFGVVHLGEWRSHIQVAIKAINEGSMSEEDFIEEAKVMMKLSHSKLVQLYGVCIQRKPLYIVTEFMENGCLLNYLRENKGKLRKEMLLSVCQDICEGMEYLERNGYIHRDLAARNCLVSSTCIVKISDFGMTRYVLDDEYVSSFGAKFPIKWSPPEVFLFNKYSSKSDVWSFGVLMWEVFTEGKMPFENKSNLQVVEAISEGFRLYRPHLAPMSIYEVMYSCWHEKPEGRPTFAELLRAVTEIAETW
Assay: KINOMEscan competition binding
Details: compound 10.0 µM
VALUE KIND: kinase still bound, per cent of control (%)

{"columns": ["SAMPLE SMILES", "REPORTED"],
 "data": [
  ["CCN1CCN(C(=O)Cc2ccc(Nc3ncc(F)c(Nc4ccc(C(=O)Nc5ccccc5Cl)cc4)n3)cc2)CC1", 2.2],
  ["COc1cc2ncnc(-n3nc(-c4ccccn4)nc3N)c2cc1OC", 43],
  ["C=CC(=O)Nc1cc(-n2c(=O)ccc3cnc4ccc(-c5cn[nH]c5)cc4c32)ccc1C", 7],
  ["COc1cc2ncn(-c3cc(OCc4ccccc4C(F)(F)F)c(C(N)=O)s3)c2cc1OC", 72],
  ["CCN(CC)CCCCNc1ncc2cc(-c3cc(OC)cc(OC)c3)c(NC(=O)NC(C)(C)C)nc2n1", 100],
  ["C=CC(=O)Nc1ccc(CN(C(=O)Nc2c(Cl)c(OC)cc(OC)c2Cl)c2cc(Nc3ccc(N4CCN(C)CC4)cc3)ncn2)cc1", 16],
  ["COc1ccc(N(C(=O)Oc2c(C)cccc2C)c2ccnc(Nc3ccc(N4CCN(C)CC4)cc3)n2)c(OC)c1", 0.45],
  ["O=C1NC(=O)/C(=C/c2ccc3nccc(-c4ccncc4)c3c2)S1", 79],
  ["COc1cc(C(=O)N2CCC(N3CCN(C)CC3)CC2)ccc1Nc1ncc2c(n1)N(C)c1ccccc1C(=O)N2C", 91]
]}

----------
Target: PLK4 (human)
Assay: KINOMEscan competition binding
Conditions: compound 10.0 µM
Entries annotated with measured kinase still bound, per cent of control

{"columns": ["SAMPLE SMILES", "kinase still bound, per cent of control (%)"],
 "data": [
  ["CS(=O)(=O)N1CCN(Cc2cc3nc(-c4cccc5[nH]ncc45)nc(N4CCOCC4)c3s2)CC1", 100],
  ["N#CCNC(=O)c1ccc(-c2ccnc(Nc3ccc(N4CCOCC4)cc3)n2)cc1", 15],
  ["Cc1n[nH]c2ccc(-c3cncc(OC[C@@H](N)Cc4c[nH]c5ccccc45)c3)cc12", 100],
  ["CNC(=O)c1ccc(Nc2cc(Nc3ccccc3S(=O)(=O)C(C)C)c3cc[nH]c3n2)nc1", 4.5],
  ["CN(C)C/C=C/C(=O)Nc1ccc(C(=O)Nc2cccc(Nc3nccc(-c4cccnc4)n3)c2)cc1", 29],
  ["CNC(=O)c1cc(Oc2ccc(NC(=O)Nc3ccc(Cl)c(C(F)(F)F)c3)cc2)ccn1", 28],
  ["COc1cc2ncnc(-n3nc(-c4ccccn4)nc3N)c2cc1OC", 0.2],
  ["NC(=O)Nc1cc(-c2cccc(F)c2)sc1C(=O)N[C@@H]1CCCNC1", 0],
  ["CCN1CCN(C(=O)Cc2ccc(Nc3ncc(F)c(Nc4ccc(C(=O)Nc5ccccc5Cl)cc4)n3)cc2)CC1", 0.25]
]}

----------
Entries annotated with measured kinase still bound, per cent of control
Biological target: CDK16 (human)
Test: KINOMEscan competition binding
Conditions: compound 10.0 µM
VALUE KIND: kinase still bound, per cent of control (%)

{"columns": ["SAMPLE SMILES", "REPORTED"],
 "data": [
  ["COCC(=O)NC/C=C/c1ccc2ncnc(Nc3ccc(Oc4ccc(C)nc4)c(C)c3)c2c1", 74],
  ["O=c1cc(N2CCOCC2)oc2c(-c3cccc4c3sc3ccccc34)cccc12", 97],
  ["COc1cc(N2CCN(C)CC2)ccc1Nc1ncc2c(n1)N(C)c1ccccc1C(=O)N2C", 100],
  ["COc1cc2ncn(-c3cc(OCc4ccccc4C(F)(F)F)c(C(N)=O)s3)c2cc1OC", 100],
  ["Cc1n[nH]c2ccc(-c3cncc(OC[C@@H](N)Cc4c[nH]c5ccccc45)c3)cc12", 16],
  ["CN(C)C/C=C/C(=O)Nc1ccc(C(=O)Nc2cccc(Nc3nccc(-c4cccnc4)n3)c2)cc1", 91],
  ["CCN(CC)CCCCNc1ncc2cc(-c3cc(OC)cc(OC)c3)c(NC(=O)NC(C)(C)C)nc2n1", 100],
  ["C=CC(=O)Nc1ccc(CN(C(=O)Nc2c(Cl)c(OC)cc(OC)c2Cl)c2cc(Nc3ccc(N4CCN(C)CC4)cc3)ncn2)cc1", 100],
  ["COc1cc2ncnc(-n3nc(-c4ccccn4)nc3N)c2cc1OC", 47]
]}

----------
Target: DSTYK (human)
Assay: KINOMEscan competition binding
Settings: compound 10.0 µM

{"columns": ["SAMPLE SMILES", "VALUE UNIT", "kinase still bound, per cent of control"],
 "data": [
  ["O=c1cc(N2CCOCC2)oc2c(-c3cccc4c3sc3ccccc34)cccc12", "%", 99],
  ["CNC(=O)c1cc(Oc2ccc(NC(=O)Nc3ccc(Cl)c(C(F)(F)F)c3)cc2)ccn1", "%", 100],
  ["COc1ccc(N(C(=O)Oc2c(C)cccc2C)c2ccnc(Nc3ccc(N4CCN(C)CC4)cc3)n2)c(OC)c1", "%", 49],
  ["COc1cc(C(=O)N2CCC(N3CCN(C)CC3)CC2)ccc1Nc1ncc2c(n1)N(C)c1ccccc1C(=O)N2C", "%", 16],
  ["C=CC(=O)Nc1cc(-n2c(=O)ccc3cnc4ccc(-c5cn[nH]c5)cc4c32)ccc1C", "%", 70],
  ["NC(=O)Nc1cc(-c2cccc(F)c2)sc1C(=O)N[C@@H]1CCCNC1", "%", 1.3]
]}
